- Tested on: HUH7 cells
- EXPERIMENTAL PROTOCOL: Proliferation inhibitory effect for HUH7 cells (SRB assay)
- Type: cell-based
- EXPERIMENTAL SETUP: Homo sapiens, Huh-7, 72 hours, GI50, read-out: IC50 HUH7 Cell Line
pIC50: −log10 of the molar value.
Listing of recorded pIC50 by entry.

{"columns": ["SMILES DATA", "TARGET OR TEST SYSTEM", "pIC50"],
 "data": [
  ["C=CC(=O)Nc1cc(N2CCOCC2)ccc1Nc1ncc2cc(-c3c(F)c(OC)cc(OC)c3F)c3nccn3c2n1", "HUH7 cells", "> 7.30"],
  ["C=CC(=O)Nc1cc(F)c(F)cc1Nc1ncc2cc(-c3c(F)c(OC)cc(OC)c3F)c3nccn3c2n1", "HUH7 cells", "6.30 to 7.30"],
  ["C=CC(=O)Nc1cc(OCC)ccc1Nc1ncc2cc(-c3c(Cl)c(OC)cc(OC)c3Cl)c3nccn3c2n1", "HUH7 cells", "> 7.30"],
  ["C=CC(=O)Nc1ccc(F)cc1Nc1ncc2cc(-c3c(Cl)c(OC)cc(OC)c3Cl)c3nccn3c2n1", "HUH7 cells", "6.30 to 7.30"],
  ["C=CC(=O)Nc1cc(N2CCOCC2)cnc1Nc1cc2c(cn1)cc(-c1c(Cl)c(OC)cc(OC)c1Cl)c1nccn12", "HUH7 cells", "> 7.30"],
  ["C=CC(=O)Nc1cccc(F)c1Nc1ncc2cc(-c3c(Cl)c(OC)cc(OC)c3Cl)c3nccn3c2n1", "HUH7 cells", "> 7.30"],
  ["C=CC(=O)Nc1cc2c(cc1Nc1ncc3cc(-c4c(Cl)c(OC)cc(OC)c4Cl)c4nccn4c3n1)CCC2", "HUH7 cells", "6.30 to 7.30"]
]}

These data points were gathered from patent US10696675B2.
